src = ChEMBL document CHEMBL1131303

List of IC50 values.
Biological target: Prostaglandin G/H synthase 2 (Homo sapiens)
Sequence (P35354 whole entry): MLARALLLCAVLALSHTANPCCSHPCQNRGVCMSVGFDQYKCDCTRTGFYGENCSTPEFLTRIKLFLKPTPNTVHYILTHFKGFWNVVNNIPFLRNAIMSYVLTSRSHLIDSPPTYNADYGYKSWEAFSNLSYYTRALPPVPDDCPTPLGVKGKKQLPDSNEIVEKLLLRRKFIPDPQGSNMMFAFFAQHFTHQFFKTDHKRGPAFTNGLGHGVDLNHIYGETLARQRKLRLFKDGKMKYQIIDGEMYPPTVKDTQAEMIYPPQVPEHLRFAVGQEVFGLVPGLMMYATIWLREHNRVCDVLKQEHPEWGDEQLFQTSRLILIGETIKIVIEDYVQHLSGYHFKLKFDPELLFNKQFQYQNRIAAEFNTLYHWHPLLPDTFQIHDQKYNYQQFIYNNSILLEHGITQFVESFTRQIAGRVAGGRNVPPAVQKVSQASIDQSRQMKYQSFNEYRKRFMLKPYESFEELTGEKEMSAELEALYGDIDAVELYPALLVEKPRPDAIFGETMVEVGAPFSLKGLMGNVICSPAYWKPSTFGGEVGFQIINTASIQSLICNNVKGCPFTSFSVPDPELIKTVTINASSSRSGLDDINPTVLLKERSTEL
Give just the numeric value; µM need not be written.

// known answers, use as guide
MOLECULAR_STRING	IC50, µM
CC1(C)COc2c(C3CCCC3)cc(C(=O)CCCC3CC3)cc21	20
CC(C)(C)c1cc(C(=O)CCCC2CC2)cc2c1OCC2	15

Next item in the queue.
Find the recorded IC50 belonging to CCCCC(=O)c1cc(C(C)(C)C)c2c(c1)C(C)(C)CCN2C and report it.
0.3

---

List of pIC50 values.
Molecular target: Prostaglandin G/H synthase 2 (Homo sapiens)
Sequence (P35354 whole entry): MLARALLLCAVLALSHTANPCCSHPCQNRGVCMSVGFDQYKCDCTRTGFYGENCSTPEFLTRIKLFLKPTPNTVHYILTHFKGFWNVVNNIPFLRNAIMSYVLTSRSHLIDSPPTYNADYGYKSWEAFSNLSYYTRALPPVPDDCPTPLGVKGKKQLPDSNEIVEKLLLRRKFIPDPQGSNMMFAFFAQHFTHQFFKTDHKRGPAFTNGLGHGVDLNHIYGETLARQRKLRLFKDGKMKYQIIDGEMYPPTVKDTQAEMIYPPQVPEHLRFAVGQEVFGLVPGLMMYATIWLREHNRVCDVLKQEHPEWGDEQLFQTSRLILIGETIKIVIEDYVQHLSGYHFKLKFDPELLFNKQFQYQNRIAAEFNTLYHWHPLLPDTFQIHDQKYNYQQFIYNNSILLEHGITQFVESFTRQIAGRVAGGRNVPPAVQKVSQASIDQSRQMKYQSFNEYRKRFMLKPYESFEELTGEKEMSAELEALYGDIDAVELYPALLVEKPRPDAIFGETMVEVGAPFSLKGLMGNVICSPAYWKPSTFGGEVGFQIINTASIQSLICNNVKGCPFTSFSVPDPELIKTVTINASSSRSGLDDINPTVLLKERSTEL
Please report pIC50 as the negative decimal logarithm of the molar concentration, giving only the number.

MOLECULAR_STRING	pIC50
CC1(C)COc2ccc(C(=O)CCCC3CC3)cc21	5.10
CCCCC(=O)c1cc(C(C)(C)C)c2c(c1)C(C)(C)CCS2	6.40

Find the recorded pIC50 belonging to CC(C)(C)c1cc(C(=O)CCCC2CC2)cc2c1OCCC2(C)C and report it.
5.52

Another compound to look at: CCCC(=O)c1cc(C(C)(C)C)c2c(c1)C(C)(C)CS2
6.82

Another compound to look at: CCc1cc(C(=O)CCCC2CC2)cc2c1OCC2(C)C
5.30
